Cited source: patent US20240368163A1

test system: Target C; experiment: HiBiT protein abundance assay, Target C; assay type: cell-based, human; conditions: Homo sapiens, K562, 24 h, Table 13A, modified K562 cells
pIC50: −log10 of the molar value.
This section presents molecules with their documented pIC50 values.

molecule	pIC50
Fc1cc(-c2ccc(N[C@@H]3C[C@H]4CC[C@@H](C3)N4)nn2)c2scnc2c1-c1cn[nH]c1	> 7.00
CC1(C)CC(Oc2ccc(-c3ccc(-n4cccn4)c4[nH]ncc34)nn2)CC(C)(C)N1	6.00 to 7.00
COc1cc(-c2ccc(-c3ccc(N(C)C4CC(C)(C)NC(C)(C)C4)nn3)c3ncsc23)cnn1	6.00 to 7.00
COc1cc(-c2ccc(-c3ccc(N(C)C4CC(C)(C)NC(C)(C)C4)nn3)c3ncsc23)ccn1	5.00 to 6.00
c1nc2c(-c3cn[nH]c3)ccc(-c3ccc(N4CCCC5(CNC5)C4)nn3)c2s1	< 5.00
c1nc2c(-c3cn[nH]c3)ccc(-c3ccc(N4CCC5(CCNC5)CC4)nn3)c2s1	< 5.00
CN(c1ccc(-c2ccc(-c3cn[nH]c3)c3ncsc23)nn1)[C@@H]1C[C@H]2CC(F)(F)[C@@H](C1)N2 (stereo in doubt)	6.00 to 7.00
Cn1cc(-c2c(F)cc(-c3ccc(OC4CC(C)(C)NC(C)(C)C4)nn3)c3[nH]ncc23)cn1	5.00 to 6.00
CN(c1ncc(-c2ccc(-c3cn[nH]c3)c3ncsc23)nn1)C1C[C@H]2CCC[C@H](C1)N2 (stereo partly drawn)	> 7.00
[2H]C([2H])([2H])N(c1ccc(-c2ccc(-c3cn[nH]c3)c3cn[nH]c23)nn1)[C@@H]1C[C@H]2CCC[C@@H](C1)N2	> 7.00
[2H]C([2H])([2H])N(c1ccc(-c2ccc(-c3cn[nH]c3)c3cn[nH]c23)nn1)C1CC(C)(C)NC(C)(C)C1	6.00 to 7.00
C[C@H]1C[C@@H](N(C)c2ccc(-c3ccc(-c4cn[nH]c4)c4cc[nH]c34)nn2)CCN1	< 5.00
CCN(c1ccc(-c2ccc(-c3cn[nH]c3)c3cn[nH]c23)nn1)C1CCNCC1	5.00 to 6.00
c1nc2c(-c3cn[nH]c3)ccc(-c3ccc(N[C@@H]4C[C@H]5COC[C@@H](C4)N5)nn3)c2s1	6.00 to 7.00
CN(c1ccc(-c2ccc(-c3cn[nH]c3)c3cc[nH]c23)nn1)[C@@H]1C[C@H]2CC[C@@H](C1)N2	5.00 to 6.00

----------
test system: Target C; assay: Splicing RT-qPCR panel, Target C canonical junction (CJ) mRNA; format: cell-based, human; conditions: Homo sapiens, RT-qPCR panel, canonical junction mRNA; compound concentration having 50% response in CJ decrease; read-out: Target C IC50 (decrease in CJ mRNA levels)
This section presents molecules with their documented IC50 values.

molecule	IC50
CCN(c1ccc(-c2ccc(-c3cn[nH]c3)c3cn[nH]c23)nn1)[C@@H]1C[C@H]2CCC[C@@H](C1)N2	100 to 1000 nM
C[C@H]1C[C@@H](N(C)c2ccc(-c3ccc(-n4cccn4)c4cc[nH]c34)nn2)CCN1	> 10000 nM
c1nc2c(-c3cn[nH]c3)ccc(-c3ccc(N4CC5(CCCNC5)C4)nn3)c2s1	> 10000 nM
c1nc2c(-c3cn[nH]c3)ccc(-c3ccc(O[C@H]4C[C@H]5COC[C@@H](C4)N5)nn3)c2s1	> 10000 nM
Fc1cc(-c2ccc(O[C@@H]3C[C@H]4CC[C@@H](C3)N4)nn2)c2sncc2c1-c1cn[nH]c1	< 100 nM
CN1CCN(c2ncc(-c3ccc(-c4cn[nH]c4)c4ncsc34)nn2)CC1C1CC1 (stereo not shown)	1000 to 10000 nM
CN(c1ccc(-c2ccc(-c3cnn(C)c3)c3scnc23)nn1)C1CC(C)(C)NC(C)(C)C1	> 10000 nM
Cn1cc(-c2c(F)cc(-c3ccc(NC4CCNCC4)nn3)c3[nH]ncc23)cn1	> 10000 nM
CN(c1ccc(-c2ccc(-n3cccn3)c3cn[nH]c23)nn1)[C@@H]1C[C@H]2CC[C@@H](C1)N2	< 100 nM
CN(c1ccc(-c2ccc(-c3cn[nH]c3)c3cn[nH]c23)nn1)[C@@H]1C[C@H]2CC[C@@H](C1)N2	100 to 1000 nM
CN(c1ccc(-c2ccc(-c3cn[nH]c3)c3cn[nH]c23)nn1)[C@H]1[C@@H]2CNC[C@@H]21	> 10000 nM
CN1CCCC2(CCN2c2ccc(-c3ccc(-c4cn[nH]c4)c4ncsc34)nn2)C1 (stereo not shown)	> 10000 nM
c1n[nH]cc1-c1ccc(-c2ccc(N3CCC4(CCCNC4)C3)nn2)c2[nH]ncc12 (stereo not shown)	> 10000 nM
Cc1ncc(-c2ccc(-c3ccc(N(C)C4CC(C)(C)NC(C)(C)C4)nn3)c3scnc23)o1	1000 to 10000 nM
c1n[nH]cc1-c1ccc(-c2ccc(S[C@@H]3C[C@H]4CC[C@@H](C3)N4)nn2)c2[nH]ncc12	> 10000 nM
CCNC1CCN(c2ccc(-c3ccc(-c4cn[nH]c4)c4ncsc34)nn2)CC1	> 10000 nM
CN(c1ccc(-c2ccc(-c3cn[nH]c3)c3cn[nH]c23)nn1)C1CC(C)(C)NC(C)(C)C1	1000 to 10000 nM
CN(c1ccc(-c2ccc(-c3cn[nH]c3)c3ncsc23)nn1)[C@@H]1C[C@H]2CC[C@@H](C1)N2	< 100 nM
c1nc2c(-c3cn[nH]c3)ccc(-c3ccc(N[C@@H]4C[C@H]5COC[C@@H](C4)N5)nn3)c2s1	100 to 1000 nM
c1nc2c(-c3cn[nH]c3)ccc(-c3ccc(N4CCNCC4)nn3)c2s1	> 10000 nM
CC1(C)CC(Nc2ccc(-c3ccc(-n4cccn4)c4[nH]ncc34)nn2)CC(C)(C)N1	100 to 1000 nM
CCN(c1ccc(-c2ccc(-c3cn[nH]c3)c3ncsc23)nn1)C1CCNCC1	> 10000 nM
Cc1ncc(-c2ccc(-c3ccc(N(C)C4CC(C)(C)NC(C)(C)C4)nc3)c3ncsc23)o1	1000 to 10000 nM
CN(c1ccc(-c2ccc(-c3ccc(=O)[nH]c3)c3scnc23)nn1)C1CC(C)(C)NC(C)(C)C1	100 to 1000 nM
c1nc2c(-c3cn[nH]c3)ccc(-c3cnc(N4CCN[C@@H](C5CC5)C4)nn3)c2s1	1000 to 10000 nM
